Data origin: ChEMBL document CHEMBL1201862

Test system: M19-MEL
assay-remarks: NCI tumour cell line growth inhibition, 48 h
Active and inactive are the calls of the source. Rule as the data show it: active = GI50 up to about 1.1 µM and inactive = higher.
As shown below, each of these compounds has a reported GI50 value.

>>> endpoint_result("CC(C)(C)c1ccc(OCCOCCOc2ccc(C(C)(C)C)cc2S(=O)(=O)Nc2ccc([N+](=O)[O-])cc2)c(S(=O)(=O)Nc2ccc([N+](=O)[O-])cc2)c1")
"6.11 µM (inactive)"
>>> endpoint_result("O=C1C(c2ccccc2)=C(c2ccccc2)C(c2ccc(Sc3ccc(C4=C(c5ccccc5)C(=O)C(c5ccccc5)=C4c4ccccc4)cc3)cc2)=C1c1ccccc1")
"> 100 µM (inactive)"
>>> endpoint_result("CCC12C=CCN3CCC4(C(=C(C(=O)OC)[C@@H]1O)Nc1ccccc14)C32 (some centres undefined)")
"1.74 µM (inactive)"

# compound "CCOC(=O)NC/C=C/CO" ; its GI50 = > 100 µM (inactive)

###

Test system: A549
assay-remarks: NCI tumour cell line growth inhibition, 48 h
Active and inactive are the calls of the source. Cut-off read from the data, not from the text of the source: active = GI50 up to about 1.1 µM and inactive = higher.
As shown below, each of these compounds has a reported GI50 value.

>>> endpoint_result("OC1(C(Sc2ccccc2)Sc2ccccc2)CCCCCC1")
"28 µM (inactive)"
>>> endpoint_result("CC1=NN(C(=O)c2ccc(Cl)cc2)C(=O)C1/N=N/c1ccc(S(=O)(=O)Nc2ncccn2)cc1 (stereo unspecified)")
"> 100 µM (inactive)"
>>> endpoint_result("N#Cc1c(-c2ccccc2)c(C#N)c(=S)n(C2OC(CO)C(O)C(O)C2O)c1O (stereo unspecified)")
"> 100 µM (inactive)"
>>> endpoint_result("O=C(O)c1c(-c2nccc3ccccc23)[nH]c(-c2ccccc2)c1S(=O)(=O)O")
"> 100 µM (inactive)"
>>> endpoint_result("O=[N+]([O-])c1cc(Cl)cc2c1nc(NCCO)c1ccccc12")
"2.95 µM (inactive)"

Please turn your attention to the following entry.
Lab note: compound "O=C(O)C/C(=C\c1ccccc1)C(=O)O" tested on A549; recorded GI50 was > 100 µM (inactive)

###

Test system: OVCAR-3
assay-remarks: NCI tumour cell line growth inhibition, 48 h
Activity calls are given as the source filed them. Cut-off read from the data, not from the text of the source: active = GI50 up to about 1.1 µM and inactive = higher.
Could you please pick one outcome from this set? active, inactive

Solved cases below.
>>> cat("CCN(CC)CCNCc1cc(Cl)cc2c1OCOC2")
"inactive"
>>> cat("Oc1nc(-c2ccccc2)cc(-c2ccccc2O)n1")
"inactive"
>>> cat("C=C(C)c1nc(C#N)c(N)o1")
"inactive"
>>> cat("C[C@]12CC[C@H](O)CC1=CC[C@@H]1[C@@H]2CC[C@]2(C)C(=O)/C(=C/c3ccc([N+](=O)[O-])cc3)C[C@@H]12")
"inactive"
>>> cat("COc1cc2c3cc1Oc1c(OC)c(OC)cc4c1C(=NCC4)Cc1ccc(cc1)Oc1cc(ccc1O)C[C@H]3N(C)CC2")
"inactive"

// param item: "C/N=N/N(C)C(=O)NC" ; yields the recorded call
inactive

// param item: "c1ccc(-c2nc(-c3ccccc3SSc3ccccc3-c3nc(-c4ccccc4)nn3-c3ccccc3)n(-c3ccccc3)n2)cc1" ; yields the recorded call
inactive

// param item: COc1cccc2c1C(=O)c1c(O)c3c(c(O)c1C2=O)C[C@@](O)(C(=O)CO)C[C@@H]3OC1CC(N)C(OC)C(C)O1 (some centres undefined) ; yields the recorded call
active

// param item: "c1ccc2c(c1)[n-]n1c3ccc4nonc4c3n[n+]21" ; yields the recorded call
inactive

// param item: Cc1ccc(N2C(=O)C3C=CC(n4[nH]c(=O)n(Cc5ccccc5)c4=O)CC3C2=O)cc1 (centres undefined) ; yields the recorded call
inactive

// param item: "CN1CCC(O)(C(C)(C)C)CC1" ; yields the recorded call
inactive
